Below is a list of entries, each paired with its recorded pKi value.
- Target under test: human adenosine A1 receptor (Homo sapiens, UniProt P30542)
- Sequence (P30542 whole entry): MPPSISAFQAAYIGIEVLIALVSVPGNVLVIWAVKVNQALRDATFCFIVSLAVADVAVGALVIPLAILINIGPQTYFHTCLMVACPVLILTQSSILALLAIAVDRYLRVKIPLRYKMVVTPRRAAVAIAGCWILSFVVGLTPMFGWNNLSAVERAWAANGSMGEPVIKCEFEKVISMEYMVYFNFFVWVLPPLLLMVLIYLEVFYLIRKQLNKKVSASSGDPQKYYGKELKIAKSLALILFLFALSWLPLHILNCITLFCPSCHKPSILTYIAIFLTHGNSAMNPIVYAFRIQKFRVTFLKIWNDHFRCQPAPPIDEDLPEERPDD
- Assay protocol: Adenosine A1 Receptor Functional Assay (A1GAL2)
- Assay conditions: CHO-K1 cells, cAMP inducible beta-galactosidase reporter, 4 nM r-PIA/1 uM Forskolin challenge
Note on units: pKi is unitless, being -log10 of a concentration expressed in mol/L.

Check out these entries, answers already filled in.
Nc1nc(-c2ccco2)nc2sc(CN3CC=CCC3)cc12 :: 6.80
Nc1nc(-c2ccco2)nc2sc(CN3CCC(F)C3)cc12 (stereo not shown) :: 5.87

Now consider a different molecule.
Inquiry: Which value of pKi has been reported for `Nc1nc(-c2cccc(F)c2)nc2sc(CN3CCSCC3)cc12` in the records?
Reply text: 6.48
